Origin of values: ChEMBL document CHEMBL2163325

Biological target: Phosphatidylinositol 4,5-bisphosphate 3-kinase catalytic subunit beta isoform (Homo sapiens)
Sequence (P42338 whole entry, canonical isoform): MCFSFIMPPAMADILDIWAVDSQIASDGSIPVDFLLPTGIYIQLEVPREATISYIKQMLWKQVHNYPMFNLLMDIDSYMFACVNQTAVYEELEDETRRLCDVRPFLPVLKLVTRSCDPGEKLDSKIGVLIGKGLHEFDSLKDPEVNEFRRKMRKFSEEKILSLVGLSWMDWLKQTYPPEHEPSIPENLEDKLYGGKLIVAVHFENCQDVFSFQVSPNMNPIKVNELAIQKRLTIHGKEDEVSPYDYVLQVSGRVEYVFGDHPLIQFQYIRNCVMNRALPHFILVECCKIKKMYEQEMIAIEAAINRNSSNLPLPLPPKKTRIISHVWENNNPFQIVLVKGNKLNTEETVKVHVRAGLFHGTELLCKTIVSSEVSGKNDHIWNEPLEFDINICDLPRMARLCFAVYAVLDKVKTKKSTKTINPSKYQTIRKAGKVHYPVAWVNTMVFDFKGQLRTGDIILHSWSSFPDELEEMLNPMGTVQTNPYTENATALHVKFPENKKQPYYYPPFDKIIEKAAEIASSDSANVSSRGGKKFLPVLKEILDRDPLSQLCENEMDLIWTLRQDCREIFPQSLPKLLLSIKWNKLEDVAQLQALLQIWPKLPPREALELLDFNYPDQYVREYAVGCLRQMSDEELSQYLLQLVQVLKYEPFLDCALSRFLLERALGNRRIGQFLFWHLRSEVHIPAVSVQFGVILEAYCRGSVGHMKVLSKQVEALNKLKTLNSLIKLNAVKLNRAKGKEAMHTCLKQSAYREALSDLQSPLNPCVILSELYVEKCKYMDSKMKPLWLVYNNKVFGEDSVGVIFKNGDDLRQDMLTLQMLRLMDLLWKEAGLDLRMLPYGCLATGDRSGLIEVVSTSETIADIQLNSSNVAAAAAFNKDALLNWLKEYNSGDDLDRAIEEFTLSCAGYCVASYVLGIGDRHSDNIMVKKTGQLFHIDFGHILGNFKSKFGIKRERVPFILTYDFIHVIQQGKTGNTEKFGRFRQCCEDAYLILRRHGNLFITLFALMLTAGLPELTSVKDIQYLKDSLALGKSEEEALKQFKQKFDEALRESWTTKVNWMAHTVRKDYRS
Experiment: Inhibition of human PI3K p110beta-mediated AKT phosphorylation at Ser473 in MDA-MB-468 cells after 2 hrs by fluorescence microplate cytometric analysis
Format: cell-based
Endpoint: IC50 (µM)
Numbers only, in µM.

Name the recorded IC50 of the compound listed here: `C[C@H]1CN(c2cc(N(CCO)Cc3cccc4ccccc34)[nH]c(=O)n2)CCO1` 0.195

---

Assay: Toxicity in human adipocytes assessed as inhibition of insulin-induced glucose uptake
Type: cell-based, Adipocyte
Endpoint: IC50 (µM)
Answers are plain numbers, in µM.

Please supply the value of reported IC50 for the item Cc1cc([C@@H](C)Nc2ccccc2C(=O)O)c2nc(N3CCOCC3)cc(=O)n2c1 [AZD-6482] 4.4

---

Target: Phosphatidylinositol 4,5-bisphosphate 3-kinase catalytic subunit delta isoform (Homo sapiens)
Sequence (O00329 whole entry, canonical isoform): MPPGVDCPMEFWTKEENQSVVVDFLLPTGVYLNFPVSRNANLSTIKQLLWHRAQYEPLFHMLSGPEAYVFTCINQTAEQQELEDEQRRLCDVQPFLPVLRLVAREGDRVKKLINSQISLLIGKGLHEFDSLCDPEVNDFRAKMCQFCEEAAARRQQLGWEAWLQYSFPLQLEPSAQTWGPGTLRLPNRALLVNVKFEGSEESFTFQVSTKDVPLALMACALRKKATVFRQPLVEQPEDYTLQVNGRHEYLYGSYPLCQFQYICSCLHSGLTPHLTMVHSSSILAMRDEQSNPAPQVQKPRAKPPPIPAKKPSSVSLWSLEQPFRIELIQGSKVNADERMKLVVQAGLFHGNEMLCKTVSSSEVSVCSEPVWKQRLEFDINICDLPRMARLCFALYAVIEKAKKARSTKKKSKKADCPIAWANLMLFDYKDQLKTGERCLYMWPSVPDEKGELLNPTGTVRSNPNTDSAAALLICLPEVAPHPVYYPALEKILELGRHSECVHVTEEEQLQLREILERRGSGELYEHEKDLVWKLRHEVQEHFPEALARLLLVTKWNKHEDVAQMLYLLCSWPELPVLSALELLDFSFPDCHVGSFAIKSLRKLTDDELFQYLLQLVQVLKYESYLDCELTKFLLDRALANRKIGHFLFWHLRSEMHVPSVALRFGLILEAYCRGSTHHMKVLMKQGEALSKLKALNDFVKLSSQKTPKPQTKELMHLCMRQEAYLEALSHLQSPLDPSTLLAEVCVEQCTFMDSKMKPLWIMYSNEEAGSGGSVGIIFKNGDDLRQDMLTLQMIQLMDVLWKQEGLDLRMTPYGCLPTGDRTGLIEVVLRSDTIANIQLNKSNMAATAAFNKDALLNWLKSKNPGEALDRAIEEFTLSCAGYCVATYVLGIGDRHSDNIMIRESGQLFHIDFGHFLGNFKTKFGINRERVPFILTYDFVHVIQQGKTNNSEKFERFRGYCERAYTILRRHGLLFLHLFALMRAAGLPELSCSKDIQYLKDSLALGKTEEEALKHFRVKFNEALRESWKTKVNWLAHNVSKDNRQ
Test: Inhibition of human recombinant His6-tagged PI3K p110delta expressed in baculovirus infected cells using DiC8-PI(4,5)P2 as substrate after 20 mins by AlphaScreen assay
Endpoint: IC50 (nM)
Give bare numbers, in nM.

Output IC50 of `C[C@H]1CN(c2cc(N(CCO)Cc3cccc4ccccc34)[nH]c(=O)n2)CCO1` 168

---

Test: Oral bioavailability in fasted Beagle dog at 2 umol/kg
Format: ADME, organism-based, Canis lupus familiaris
Settings: in vivo
Endpoint: bioavailability (%)
Give bare numbers, in %.

# return recorded bioavailability for entry `C[C@H]1CN(c2cc(N(CCO)Cc3cccc4ccccc34)[nH]c(=O)n2)CCO1` 25

---

Molecular target: Phosphatidylinositol 4,5-bisphosphate 3-kinase catalytic subunit gamma isoform (Homo sapiens, UniProt P48736)
Sequence (P48736 whole entry, canonical isoform): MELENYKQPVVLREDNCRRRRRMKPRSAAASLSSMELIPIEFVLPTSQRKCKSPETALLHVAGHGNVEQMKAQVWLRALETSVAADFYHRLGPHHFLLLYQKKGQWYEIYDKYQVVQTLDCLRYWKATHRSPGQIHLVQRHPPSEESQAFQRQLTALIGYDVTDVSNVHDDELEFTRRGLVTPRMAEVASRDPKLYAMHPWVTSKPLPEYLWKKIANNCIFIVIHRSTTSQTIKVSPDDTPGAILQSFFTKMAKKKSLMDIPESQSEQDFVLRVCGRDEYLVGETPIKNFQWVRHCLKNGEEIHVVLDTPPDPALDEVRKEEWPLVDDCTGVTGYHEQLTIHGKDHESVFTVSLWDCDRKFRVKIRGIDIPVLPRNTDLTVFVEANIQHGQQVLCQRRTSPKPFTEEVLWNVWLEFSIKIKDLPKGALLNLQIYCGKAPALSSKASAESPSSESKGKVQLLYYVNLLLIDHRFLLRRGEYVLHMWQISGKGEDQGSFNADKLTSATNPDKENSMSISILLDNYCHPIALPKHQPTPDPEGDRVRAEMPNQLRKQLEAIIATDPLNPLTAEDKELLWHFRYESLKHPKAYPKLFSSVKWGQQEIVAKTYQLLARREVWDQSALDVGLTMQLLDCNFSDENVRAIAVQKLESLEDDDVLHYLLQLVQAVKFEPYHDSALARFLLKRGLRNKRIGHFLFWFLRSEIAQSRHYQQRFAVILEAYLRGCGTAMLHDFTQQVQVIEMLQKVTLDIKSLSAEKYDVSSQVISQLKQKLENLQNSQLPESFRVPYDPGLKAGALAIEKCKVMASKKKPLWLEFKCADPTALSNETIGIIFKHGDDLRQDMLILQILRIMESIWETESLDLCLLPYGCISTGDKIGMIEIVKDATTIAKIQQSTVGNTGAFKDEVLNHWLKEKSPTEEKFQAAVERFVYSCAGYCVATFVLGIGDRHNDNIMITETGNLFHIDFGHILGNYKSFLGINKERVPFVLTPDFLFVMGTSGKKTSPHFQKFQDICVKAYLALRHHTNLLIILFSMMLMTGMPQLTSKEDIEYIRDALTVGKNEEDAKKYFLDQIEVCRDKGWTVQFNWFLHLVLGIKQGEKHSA
Experiment: Inhibition of human recombinant His6-tagged PI3K […] expressed in baculovirus infected cells using DiC8-PI(4,5)P2 as substrate after 20 mins by AlphaScreen assay
Endpoint: pIC50
One number for each entry, as −log10 of the molar value.

Specify reported pIC50 for the compound shown: `C[C@H]1CN(c2cc(N(CCO)Cc3cccc4ccccc34)[nH]c(=O)n2)CCO1` 4.01
